- EXPERIMENTAL_PROTOCOL: osmotic lysis modulators in infected erythrocytes, primary screen, PSAC antagonist project, cell-based, P. falciparum Indochina, OD700, 3 h (AID 1156)
- CONDITIONS: higher = more signal, called active from +8 up or from −8 down
Values of z-score greater than or equal to -0.2 map to fulfilled; values below map to not fulfilled.

Data request: Tell me whether z-score is at least -0.2 here: `O=C1C[C@@H](O)[C@@H](O)[C@@H]2[C@@H]3C(=O)N(Cc4ccccc4)C(=O)[C@@H]3CC[C@H]12`
Data returned: fulfilled

Data request: Now the molecule C=CC[C@@H]1C=CC(ON=C(C)C)[C@@H](CO)O1 (stereo not given in full)
Data returned: not fulfilled

Data request: Next record, please: `COC(=O)[C@@H]1CC[C@H](C)[C@@H](c2ccc(C)cc2)N1C(=O)c1ccc(C=NOC[C@H]2O[C@H](c3ccccc3)C=C[C@@H]2Oc2ccc(OC)cc2)cc1`
Data returned: fulfilled

Data request: Would you kindly repeat that for `CC(C)=CCCC(C)=CCON=C1C[C@@H](O)[C@@H](O)[C@@H]2[C@@H]3C(=O)N([C@@H](C)c4ccccc4)C(=O)[C@@H]3CC[C@@H]12` ?
Data returned: not fulfilled

Data request: Repeat with `COc1ccc(COC(=O)NN=C2C[C@@H](O)[C@@H](O)[C@@H]3[C@@H]4C(=O)N(Cc5ccccc5)C(=O)[C@@H]4CC[C@@H]23)cc1`
Data returned: fulfilled

Data request: Proceed to COC(=O)[C@H](C)NC(=O)CCC1CC(OC(=O)NCc2cccc3ccccc23)CC2(CCCC(COC(=O)NCCOc3ccccc3)O2)O1 (stereo not given in full)
Data returned: not fulfilled

Data request: Same question for COC(=O)CC=C[C@@H](C)[C@@H](C=NOC(C)CN1CCCCc2nc(C)c(C)cc21)NS(=O)(=O)c1ccc(C)cc1 (stereo not given in full) please.
Data returned: fulfilled

Data request: Next up: CCOC(=O)[C@H](CC(C)C)NC(=O)CCC1CC(OC(=O)NCc2ccc3c(c2)OCO3)CC2(CCCC(COC(=O)NCc3ccccc3)O2)O1 (stereo not given in full)
Data returned: not fulfilled

Data request: Next up: `CC(C)[C@H](NC(=O)OC(C)(C)C)[C@@H](O)CC(=O)C(C)(C)C`
Data returned: fulfilled

Data request: Also check `CCOC(=O)CCN1C(=O)[C@H]2[C@H]3[C@H](O)[C@H](O)CC(=NNC(=O)OCc4ccccc4)[C@H]3CC[C@H]2C1=O`
Data returned: fulfilled

More entries:
Data request: Kindly determine if z-score recorded for `CN1CCc2nc(-c3ccccc3)c(-c3ccccc3)cc2C1` is above or exactly -0.2.
Data returned: fulfilled

Data request: How about C[C@H]1CC[C@H]2C(=O)OC(COc3ccc(C(C)(C)C)cc3)CN2[C@@H]1c1ccc(Br)cc1 (stereo not given in full) ?
Data returned: not fulfilled

Data request: Next up: `CO[C@@H]1C=CCC(=O)N[C@@H](C)C(=O)OC[C@@H](NS(=O)(=O)c2ccc(C)cc2)[C@H](C)C=CCC(=O)OC[C@H]1C`
Data returned: not fulfilled

Data request: Now this one: `CC(CCN1CCCc2nc(C)c(C)cc21)=NO[C@H](C)c1cn([C@H](CO)Cc2ccccc2)nn1`
Data returned: fulfilled

Data request: Same thing, different molecule: `CC(CCN1CCCc2nc(C)c(C)cc21)=NOC[C@@H](C)[C@H](OCc1ccccc1)C(C)C`
Data returned: fulfilled
